# Test system: HT1080 cells
# assay-method-text: Cellular assay for IDH1m R132C inhibitors, 2-HG by LC-MS in HT1080 cells
# Type: cell-based
# condition-info: Homo sapiens, HT-1080
observation-type: IC50

Worked cases, IC50 given:
>  <molecule>
CC(C)(CC#N)Nc1nc(Nc2ccnc(C(C)(F)F)c2)nc(-c2cccc(C(F)(F)F)n2)n1

>  <result>
> 1000 nM

$$$$
>  <molecule>
N#CC1(c2cc(Nc3nc(NCC(F)(F)F)nc(-c4cccc(Cl)n4)n3)ccn2)CC1

>  <result>
100 to 1000 nM

$$$$
>  <molecule>
FC(F)(F)c1cc(Nc2nc(NCC3CC3)nc(-c3cccc(Cl)n3)n2)ccn1

>  <result>
> 1000 nM

$$$$
>  <molecule>
CC(Nc1nc(Nc2ccnc(C(F)(F)F)c2)nc(-c2cccc(C(F)(F)F)n2)n1)C(F)(F)F (stereo not shown)

>  <result>
100 to 1000 nM

$$$$

Now let's try a different one.
Record CC(Nc1nc(NC(C)C(F)(F)F)nc(-c2nc(C(F)(F)F)cs2)n1)C(F)(F)F (stereo not shown) . Reported IC50: < 50 nM

====

# assay-system: IDH1 wt/IDH1 R132H heterodimer (Homo sapiens (Human), UniProt O75874, R132H)
# Sequence (O75874 whole entry R132H): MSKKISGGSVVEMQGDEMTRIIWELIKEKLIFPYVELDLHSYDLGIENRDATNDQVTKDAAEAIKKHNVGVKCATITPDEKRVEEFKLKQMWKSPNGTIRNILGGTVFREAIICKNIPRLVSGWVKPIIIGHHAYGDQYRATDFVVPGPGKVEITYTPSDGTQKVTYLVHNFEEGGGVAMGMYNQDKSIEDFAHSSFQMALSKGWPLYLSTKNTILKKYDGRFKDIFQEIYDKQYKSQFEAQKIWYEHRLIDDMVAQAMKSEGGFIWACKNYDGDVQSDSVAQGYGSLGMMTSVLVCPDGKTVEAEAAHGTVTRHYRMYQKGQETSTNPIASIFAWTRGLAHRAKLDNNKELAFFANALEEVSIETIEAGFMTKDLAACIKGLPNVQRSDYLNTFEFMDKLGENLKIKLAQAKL
# Sequence (O75874 whole entry, stated change not applied): as the sequence (O75874 whole entry R132H) above, with H132R counted along it
# assay-method-text: In vitro assay for IDH1m R132H inhibitors, IDH1 wt/IDH1 R132H heterodimer, NADPH depletion (diaphorase/resazurin)
# Assay type: biochemical
# condition-info: IDH1 wt/R132H heterodimer, NADPH/NADP, not saturated; read-out: IDH1 wt/R132H NADPH/NADP IC50 not saturated
observation-type: IC50

Would you please look over these solved cases?
>  <molecule>
C[C@@H](Nc1nc(N[C@H](C)C2CC2)nc(-c2cccc(OC(F)(F)F)c2)n1)C1CC1

>  <observation-type>
IC50

>  <result>
> 1000 nM

$$$$
>  <molecule>
N#CC1(c2cc(Nc3nc(NC4CCC(F)(F)C4)nc(-c4cccc(Cl)n4)n3)ccn2)CC1 (stereo not shown)

>  <observation-type>
IC50

>  <result>
< 50 nM

$$$$
>  <molecule>
N#CC1(c2cc(Nc3nc(NC4CC(F)(F)C4)nc(-c4cccc(C(F)(F)F)n4)n3)ccn2)CC1

>  <observation-type>
IC50

>  <result>
< 50 nM

$$$$
>  <molecule>
C[C@@H](Nc1nc(N[C@H](C)C2CC2)nc(-c2cccc(C(N)=O)n2)n1)C1CC1

>  <observation-type>
IC50

>  <result>
> 1000 nM

$$$$
>  <molecule>
C[C@@H](Nc1nc(N[C@H](C)C2CC2)nc(-c2cccc(Cl)c2)n1)C1CC1

>  <observation-type>
IC50

>  <result>
50 to 100 nM

$$$$
>  <molecule>
N#Cc1cc(F)cc(Nc2nc(NC3CC(F)(F)C3)nc(-c3cccc(C(F)(F)F)n3)n2)c1

>  <observation-type>
IC50

>  <result>
< 50 nM

$$$$
>  <molecule>
FC1(F)CCC(Nc2nc(NC3CCC(F)(F)CC3)nc(-c3cccc(OC(F)(F)F)n3)n2)CC1

>  <observation-type>
IC50

>  <result>
100 to 1000 nM

$$$$
>  <molecule>
FC1(F)CC[C@H](Nc2nc(Nc3ccnc(C(F)(F)F)c3)nc(-c3cccc(C(F)(F)F)n3)n2)C1

>  <observation-type>
IC50

>  <result>
< 50 nM

$$$$
>  <molecule>
FC1(F)CCC(Nc2nc(NC3Cc4cccnc4C3)nc(-c3cccc(C(F)(F)F)n3)n2)C1 (stereo not shown)

>  <observation-type>
IC50

>  <result>
< 50 nM

$$$$
>  <molecule>
FC1(F)CC(Nc2nc(NC3CC(F)(F)C3)nc(-c3cccc(C(F)(F)F)n3)n2)C1

>  <observation-type>
IC50

>  <result>
< 50 nM

$$$$

The molecule "C=Cc1cccc(-c2nc(N[C@H](C)C3CC3)nc(N[C@H](C)C3CC3)n2)n1" on IDH1 wt/IDH1 R132H heterodimer (Homo sapiens (Human), UniProt O75874, R132H): IC50 was < 50 nM
